Assayed Target: Histone deacetylase (Homo sapiens) (UniProt Q13547+O15379+Q9UBN7+Q92769+Q9UQL6+Q8WUI4+Q9BY41+Q96DB2+P56524+Q9UKV0+Q969S8)
Condition Summary: HeLa, at 0.1 µM
Description: Inhibition of HDAC in human HeLa cell extract assessed as fluorophore release at 0.1 uM by fluorescence spectrophotometry
Endpoint: inhibition (%)

O=C(CCCC1CCN(S(=O)(=O)c2ccc(Cl)cc2)CC1)NO
25
CC(C)c1ccc(S(=O)(=O)N2CCC(CCCC(=O)NO)CC2)cc1
18
COc1cccc(S(=O)(=O)N2CCC(CCCC(=O)NO)CC2)c1
28

I = O=C(CCCC1CCN(S(=O)(=O)c2ccccc2)CC1)NO
II = O=C(CCCC1CCN(S(=O)(=O)c2ccccc2O)CC1)NO
Could you determine which record has the numerically smaller inhibition? Candidates: I and II // output: label of the selected item
I

###

Assayed Target: Histone deacetylase (Homo sapiens) (UniProt Q13547+O15379+Q9UBN7+Q92769+Q9UQL6+Q8WUI4+Q9BY41+Q96DB2+P56524+Q9UKV0+Q969S8)
Condition Summary: HeLa, at 1 µM
Description: Inhibition of HDAC in human HeLa cell extract assessed as fluorophore release at 1 uM by fluorescence spectrophotometry
Endpoint: inhibition (%)

CC1(C)CCc2cc(S(=O)(=O)N3CCC(CCCC(=O)NO)CC3)ccc2O1
75
O=C(CCCC1CCN(S(=O)(=O)c2ccc3c(c2)CCO3)CC1)NO
72
O=C(/C=C/CC1CCN(S(=O)(=O)c2ccccc2)CC1)NO
48
COc1cccc(S(=O)(=O)N2CCC(CCCC(=O)NO)CC2)c1
67
Cc1ccccc1S(=O)(=O)N1CCC(CCCC(=O)NO)CC1
69
Cc1ccc(S(=O)(=O)N2CCC(CCCC(=O)NO)CC2)cc1
71
COc1ccc(S(=O)(=O)N2CCC(CCCC(=O)NO)CC2)c(OC)c1
62
O=C(CCCC1CCN(S(=O)(=O)c2ccc(C(F)(F)F)cc2)CC1)NO
55
O=C(CCCC1CCN(S(=O)(=O)c2ccc(-c3ccccc3)cc2)CC1)NO
44
O=C(CCCC1CCN(S(=O)(=O)c2ccccc2O)CC1)NO
75
O=C(CCCC1CCN(S(=O)(=O)Cc2ccccc2)CC1)NO
58
O=C(CCCC1CCN(S(=O)(=O)c2ccc(Cl)cc2)CC1)NO
62
O=C(CCCC1CCN(S(=O)(=O)c2cccc3ccccc23)CC1)NO
80
O=C(CCCC1CCN(S(=O)(=O)c2ccc3ncsc3c2)CC1)NO
69
Cc1cc(C)c(S(=O)(=O)N2CCC(CCCC(=O)NO)CC2)c(C)c1
75
CN1CCOc2cc(S(=O)(=O)N3CCC(CCCC(=O)NO)CC3)ccc21
71
O=C(CCCC1CCN(S(=O)(=O)c2ccccc2Cl)CC1)NO
77
O=C(CCCC1CCN(S(=O)(=O)c2ccccc2C(F)(F)F)CC1)NO
69
O=C(CCCC1CCN(S(=O)(=O)c2ccc(F)cc2)CC1)NO
60

###

Assayed Target: Histone deacetylase (Homo sapiens) (UniProt Q13547+O15379+Q9UBN7+Q92769+Q9UQL6+Q8WUI4+Q9BY41+Q96DB2+P56524+Q9UKV0+Q969S8)
Condition Summary: HeLa, at 0.1 µM
Endpoint: inhibition (%)

Cc1cc(S(=O)(=O)N2CCC(CCCC(=O)NO)CC2)cc2ccccc12
48
COc1ccc(S(=O)(=O)N2CCC(CCCC(=O)NO)CC2)c(OC)c1
22

a = O=C(CCCC1CCN(S(=O)(=O)c2ccccc2Cl)CC1)NO
b = Cc1cc(C)cc(S(=O)(=O)N2CCC(CCCC(=O)NO)CC2)c1
Could you determine which record has the numerically smaller inhibition? Candidates: a and b // output: label of the selected item
b
